METHOD: Biliary excretion in rats after a single oral administration of 50 mg/kg
TEST_CONDITIONS: rat, in vivo, po, 50 mg/kg
MEASURED_PARAMETER: dose excreted at 27 h (%)

>>> recorded_number("CCn1cc(C(=O)O)c(=O)c2cc(F)c(N3CCNCC3)cc21")
2.5
>>> recorded_number("CCn1cc(C(=O)O)c(=O)c2cnc(N3CCNCC3)nc21")
1.97

---

METHOD: Concentrations in urine of rats after a single oral administration
Type: in vivo
TEST_CONDITIONS: rat, 6.25 mg/kg oral, 6-24 hours, mean ±S.E., read-out: Urinary level
MEASURED_PARAMETER: concentration at 24 h (ng/mL)

>>> recorded_number("CCn1cc(C(=O)O)c(=O)c2cc(F)c(N3CCNCC3)cc21")
1360

---

METHOD: Concentrations in urine of mice after a single oral administration
Assay type: in vivo
TEST_CONDITIONS: mouse, 25.0 mg/kg oral, 6-24 hours, mean ±S.E., read-out: Urinary level
MEASURED_PARAMETER: concentration at 24 h (ng/mL)

>>> recorded_number("CCn1cc(C(=O)O)c(=O)c2cc(F)c(N3CCNCC3)cc21")
11700

---

METHOD: Concentrations in tissues after a single oral administration of 50 mg/kg in rats
TEST_CONDITIONS: rat, liver, po, 50 mg/kg
MEASURED_PARAMETER: concentration at 1 h (ng/g)

>>> recorded_number("CCn1cc(C(=O)O)c(=O)c2cc(F)c(N3CCNCC3)cc21 [Compound (II)]")
7900

---

METHOD: Serum concentrations after a single oral administration of 50 mg/kg in rats
Assay type: in vivo
TEST_CONDITIONS: serum; rat, 50 mg/kg oral, 0.5 hours
MEASURED_PARAMETER: concentration at 0.5 h (ng/mL)

>>> recorded_number("CCn1cc(C(=O)O)c(=O)c2cc(F)c(N3CCNCC3)cc21")
870

---

METHOD: Concentrations in urine of rats after a single oral administration
Assay type: in vivo
TEST_CONDITIONS: rat, 1.56 mg/kg oral, 3-6 hours, mean ±S.E., read-out: Urinary level
MEASURED_PARAMETER: concentration at 6 h (ng/mL)

>>> recorded_number("CCn1cc(C(=O)O)c(=O)c2cc(F)c(N3CCNCC3)cc21 [Compound (II)]")
930

---

METHOD: Concentrations in tissues after a single oral administration of 50 mg/kg in rats
TEST_CONDITIONS: rat, liver, po, 50 mg/kg
MEASURED_PARAMETER: concentration at 0.5 h (ng/g)

>>> recorded_number("CCn1cc(C(=O)O)c(=O)c2cc(F)c(N3CCNCC3)cc21")
9000

---

METHOD: Concentrations in urine of rats after a single oral administration
Assay type: in vivo
TEST_CONDITIONS: rat, 50.0 mg/kg oral, 6-24 hours, mean ±S.E., read-out: Urinary level
MEASURED_PARAMETER: concentration at 24 h

>>> result("CCn1cc(C(=O)O)c(=O)c2cc(F)c(N3CCNCC3)cc21")
"32200 ng/mL"

---

METHOD: Concentrations in urine of mice after a single oral administration
Type: in vivo
TEST_CONDITIONS: mouse, 50.0 mg/kg oral, 6-24 hours, mean ±S.E., read-out: Urinary level
MEASURED_PARAMETER: concentration at 24 h (ng/mL)

>>> recorded_number("CCn1cc(C(=O)O)c(=O)c2cc(F)c(N3CCNCC3)cc21")
23100

---

METHOD: Biliary excretion in rats after a single oral administration of 50 mg/kg
TEST_CONDITIONS: in vivo; rat, 50 mg/kg oral, 0-3 hrs., mean±S.E.; read-out: Biliary level
MEASURED_PARAMETER: concentration at 3 h (ng/mL)

>>> recorded_number("CCn1cc(C(=O)O)c(=O)c2ccc(C)nc21 [Nalidixic acid]")
14700

---

METHOD: in vivo
TEST_CONDITIONS: rat, po, 50 mg/kg
MEASURED_PARAMETER: concentration at 1 h (ng/g)

>>> recorded_number("CCn1cc(C(=O)O)c(=O)c2cc(F)c(N3CCNCC3)cc21 [Compound (II)]")
10300

---

METHOD: Biliary excretion in rats after a single oral administration of 50 mg/kg
TEST_CONDITIONS: rat, in vivo, po, 50 mg/kg
MEASURED_PARAMETER: concentration at 3 h (ng/mL)

>>> recorded_number("CCn1cc(C(=O)O)c(=O)c2cnc(N3CCNCC3)nc21")
27400
>>> recorded_number("CCn1cc(C(=O)O)c(=O)c2cc(F)c(N3CCNCC3)cc21")
31000

---

METHOD: Biliary excretion in rats after a single oral administration of 50 mg/kg
TEST_CONDITIONS: rat, in vivo, po, 50 mg/kg
MEASURED_PARAMETER: concentration at 6 h (ng/mL)

>>> recorded_number("CCn1cc(C(=O)O)c(=O)c2cnc(N3CCNCC3)nc21")
22600
>>> recorded_number("CCn1cc(C(=O)O)c(=O)c2cc(F)c(N3CCNCC3)cc21")
26400

---

METHOD: Concentrations in urine of mice after a single oral administration
Format: in vivo
TEST_CONDITIONS: mouse, 1.56 mg/kg oral, 6-24 hours, mean ±S.E., read-out: Urinary level
MEASURED_PARAMETER: concentration at 24 h (ng/mL)

>>> recorded_number("CCn1cc(C(=O)O)c(=O)c2cc(F)c(N3CCNCC3)cc21")
40

---

METHOD: Biliary excretion in rats after a single oral administration of 50 mg/kg
TEST_CONDITIONS: in vivo; rat, 50 mg/kg oral, 6-24 hrs., mean±S.E.; read-out: Biliary level
MEASURED_PARAMETER: concentration at 24 h (ng/mL)

>>> recorded_number("CCn1cc(C(=O)O)c(=O)c2ccc(C)nc21")
9300

---

Measured dose excreted at 24 h, listed per entry.
METHOD: Biliary excretion in rats after a single oral administration of 50 mg/kg
TEST_CONDITIONS: rat, in vivo, po, 50 mg/kg
MEASURED_PARAMETER: dose excreted at 24 h (%)

>>> recorded_number("CCn1cc(C(=O)O)c(=O)c2cc(F)c(N3CCNCC3)cc21")
2.43
>>> recorded_number("CCn1cc(C(=O)O)c(=O)c2cnc(N3CCNCC3)nc21")
1.97

---

METHOD: Serum concentrations after a single oral administration of 50 mg/kg in rats
Type: in vivo
TEST_CONDITIONS: serum; rat, 50 mg/kg oral, 4 hours
MEASURED_PARAMETER: concentration at 4 h (ng/mL)

>>> recorded_number("CCn1cc(C(=O)O)c(=O)c2cc(F)c(N3CCNCC3)cc21 [Compound (II)]")
230

---

METHOD: Concentrations in urine of rats after a single oral administration
Format: in vivo
TEST_CONDITIONS: rat, 25.0 mg/kg oral, 0-3 hours, mean ±S.E., read-out: Urinary level
MEASURED_PARAMETER: concentration at 3 h (µg/mL)

>>> recorded_number("CCn1cc(C(=O)O)c(=O)c2cc(F)c(N3CCNCC3)cc21")
56.8

---

METHOD: Concentrations in urine of mice after a single oral administration
Type: in vivo
TEST_CONDITIONS: mouse, 50.0 mg/kg oral, 0-3 hours, mean ±S.E., read-out: Urinary level
MEASURED_PARAMETER: concentration at 3 h (ng/mL)

>>> recorded_number("CCn1cc(C(=O)O)c(=O)c2cc(F)c(N3CCNCC3)cc21 [Compound (II)]")
33100

---

METHOD: Concentrations in urine of mice after a single oral administration
Assay type: in vivo
TEST_CONDITIONS: mouse, 12.5 mg/kg oral, 6-24 hours, mean ±S.E., read-out: Urinary level
MEASURED_PARAMETER: concentration at 24 h

>>> result("CCn1cc(C(=O)O)c(=O)c2cc(F)c(N3CCNCC3)cc21 [Compound (II)]")
"7400 ng/mL"

---

METHOD: Concentrations in urine of rats after a single oral administration
Assay type: in vivo
TEST_CONDITIONS: rat, 3.13 mg/kg oral, 24-27 hours, mean ±S.E., read-out: Urinary level
MEASURED_PARAMETER: concentration at 27 h (ng/mL)

>>> recorded_number("CCn1cc(C(=O)O)c(=O)c2cc(F)c(N3CCNCC3)cc21 [Compound (II)]")
30

---

METHOD: Concentrations in urine of rats after a single oral administration
Assay type: in vivo
TEST_CONDITIONS: rat, 50.0 mg/kg oral, 3-6 hours, mean ±S.E., read-out: Urinary level
MEASURED_PARAMETER: concentration at 6 h (µg/mL)

>>> recorded_number("CCn1cc(C(=O)O)c(=O)c2cc(F)c(N3CCNCC3)cc21")
99.2
